ASSAY NAME: qHTS assay to identify small molecule phospholipidosis (PLD) inducers (AID 1259344)
CONDITION DESCRIPTION: HepG2 phospholipidosis, LipidTOX Red imaging, 24 h; series mostly up to 38.3 µM
Records with an inconclusive call do not appear. Calls of active or inactive are those of the source. Calls come from the whole dose curve; as a rule, active = well fitted activation curve with a large enough effect; inconclusive = small, poorly fitted or top-dose-only effect; inactive = flat fitted curve, though single readings scatter.
Please state which outcome applies, choosing from YES (active), NO (inactive)

Look over these answered cases.
COMPOUND | CATEGORY LABEL
CC[N+](CC)(CC)CCOc1ccc(/C=C/c2ccccc2)cc1 | NO
CCO[C@@H]1O[C@H](C(COCc2ccccc2)OCc2ccccc2)[C@H](OCc2ccccc2)[C@H]1O (stereo partly drawn) | NO

Per the assay record, what outcome was assigned to CC(C)Cn1cnc2c(N)nc3ccccc3c21 ?
NO

Per the assay record, what outcome was assigned to O=c1[nH]c(=O)n([C@H]2C[C@H](O)[C@@H](CO)O2)cc1F ?
NO

Write down the call the test reported for this compound. Item: COC1=C(OC)C(=O)C(CCCCCCCCCCO)=C(C)C1=O
NO

Could you please tell me the result logged for O=C1CCc2cc(OCCCCc3nnnn3C3CCCCC3)ccc2N1 in this assay?
NO

What was the test verdict on CC(=O)Oc1cc2c(s1)CCN(C(C(=O)C1CC1)c1ccccc1F)C2 (stereo not drawn) ?
NO

How was CCCCC(CC)CN1CN(CC(CC)CCCC)CC(C)(N)C1 (stereo not drawn) classified in this test?
NO

Entry CCN(CC)C(=O)c1cc(S(=O)(=O)Cc2ccccc2)c(N2CCC(c3ccccc3)CC2)cc1N(CC)CCN(C)C : call = ?
NO

State the result this test recorded for CCCCC/C=C\C/C=C\CCCCCCCC(=O)O .
NO
